System: AMPK
Assay: Dundee kinase panel
Type: biochemical, human
Conditions: 1 μM
MEASUREMENT_LABEL: residual activity (%)
Respond with the bare value in %.

Reference set, count: 3
Oc1ncnc2c1c(-c1ccccc1)cn2-c1ccccc1 [F1386-0303]: 114
O=C1Cc2c([nH]c3ccc(Br)cc23)-c2ccccc2N1 [Kenpaullone]: 64
Nc1ncc(C(=O)NC2CN(C(=O)C3CC3)C2)c2ccc(-c3cccc(F)c3)nc12 [GNE-495]: 81

In: For the compound O=C1Nc2ccc(I)cc2/C1=C/c1cc(Br)c(O)c(Br)c1 [GW5074] , give its measured residual activity value.
Out: 42

In: For the compound COCCOc1ccc(-c2cn(-c3ccccc3)c3nc[nH]c(=O)c23)cc1 [DMX-5804] , give its measured residual activity value.
Out: 87

* * *

Target: SIK3 (Homo sapiens)
Construct: lines 1-140) and Reaction Biology
Sequence (Q9Y2K2 whole entry): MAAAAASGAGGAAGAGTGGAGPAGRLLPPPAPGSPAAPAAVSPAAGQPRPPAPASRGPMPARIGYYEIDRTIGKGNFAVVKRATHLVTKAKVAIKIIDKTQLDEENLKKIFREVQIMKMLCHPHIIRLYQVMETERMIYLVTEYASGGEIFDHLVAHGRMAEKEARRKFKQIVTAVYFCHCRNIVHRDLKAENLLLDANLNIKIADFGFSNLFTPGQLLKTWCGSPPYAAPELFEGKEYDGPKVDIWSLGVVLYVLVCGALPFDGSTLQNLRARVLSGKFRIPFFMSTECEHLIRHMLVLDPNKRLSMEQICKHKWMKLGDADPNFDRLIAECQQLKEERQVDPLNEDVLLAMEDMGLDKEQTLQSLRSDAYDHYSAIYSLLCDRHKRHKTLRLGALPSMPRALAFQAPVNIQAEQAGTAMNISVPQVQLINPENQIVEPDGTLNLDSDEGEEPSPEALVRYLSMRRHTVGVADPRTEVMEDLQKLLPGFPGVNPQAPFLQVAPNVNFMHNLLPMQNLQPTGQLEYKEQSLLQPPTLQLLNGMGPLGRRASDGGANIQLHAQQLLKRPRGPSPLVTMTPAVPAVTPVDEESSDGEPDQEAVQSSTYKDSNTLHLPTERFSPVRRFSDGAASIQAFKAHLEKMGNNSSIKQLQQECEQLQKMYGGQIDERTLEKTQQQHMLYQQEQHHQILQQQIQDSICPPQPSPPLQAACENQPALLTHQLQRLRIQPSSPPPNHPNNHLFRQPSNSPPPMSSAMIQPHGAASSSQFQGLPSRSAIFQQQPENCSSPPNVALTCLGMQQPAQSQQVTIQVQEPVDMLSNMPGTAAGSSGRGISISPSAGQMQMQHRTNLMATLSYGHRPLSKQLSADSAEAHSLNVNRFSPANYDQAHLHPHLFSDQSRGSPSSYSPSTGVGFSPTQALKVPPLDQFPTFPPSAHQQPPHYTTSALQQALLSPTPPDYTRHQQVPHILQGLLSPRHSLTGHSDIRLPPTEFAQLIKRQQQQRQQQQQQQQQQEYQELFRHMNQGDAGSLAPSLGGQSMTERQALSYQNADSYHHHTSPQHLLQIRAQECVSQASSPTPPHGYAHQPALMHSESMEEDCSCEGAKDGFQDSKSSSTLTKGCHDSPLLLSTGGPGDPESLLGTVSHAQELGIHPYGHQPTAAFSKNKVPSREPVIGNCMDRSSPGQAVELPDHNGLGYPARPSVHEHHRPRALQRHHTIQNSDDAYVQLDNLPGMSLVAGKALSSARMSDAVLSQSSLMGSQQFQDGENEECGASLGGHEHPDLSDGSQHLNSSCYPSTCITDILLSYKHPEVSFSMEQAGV
Assay: Dundee kinase panel
Type: biochemical
Conditions: read-out: residual activity
MEASUREMENT_LABEL: remaining activity at 1 µM (%)
Respond with the bare value in %.

COCCOc1ccc(-c2cn(-c3ccccc3)c3nc[nH]c(=O)c23)cc1: 90
O=C1Nc2ccc(I)cc2/C1=C/c1cc(Br)c(O)c(Br)c1: 65
O=C1Cc2c([nH]c3ccc(Br)cc23)-c2ccccc2N1: 12

// below: remaining activity at 1 µM requested for another molecule
In: For the molecule "Oc1ncnc2c1c(-c1ccccc1)cn2-c1ccccc1" , give its measured remaining activity at 1 µM value.
Out: 110

* * *

Biological target: p38b MAPK (Homo sapiens, UniProt Q15759)
Construct: lines 1-140) and Reaction Biology
Sequence (Q15759 whole entry): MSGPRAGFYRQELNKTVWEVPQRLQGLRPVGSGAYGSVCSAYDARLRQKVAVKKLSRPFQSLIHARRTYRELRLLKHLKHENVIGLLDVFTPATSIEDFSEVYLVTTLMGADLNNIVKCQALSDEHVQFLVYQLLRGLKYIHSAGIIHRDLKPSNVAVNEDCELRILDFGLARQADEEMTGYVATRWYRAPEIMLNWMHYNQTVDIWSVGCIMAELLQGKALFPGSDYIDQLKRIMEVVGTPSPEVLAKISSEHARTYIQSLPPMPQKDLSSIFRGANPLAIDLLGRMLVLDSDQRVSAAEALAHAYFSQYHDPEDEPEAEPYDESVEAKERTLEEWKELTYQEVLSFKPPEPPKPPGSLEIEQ
Experiment: Dundee kinase panel
Format: biochemical
Settings: read-out: residual activity
MEASUREMENT_LABEL: remaining activity at 1 µM (%)
Respond with the bare value in %.

Oc1ncnc2c1c(-c1ccccc1)cn2-c1ccccc1: 96
COCCOc1ccc(-c2cn(-c3ccccc3)c3nc[nH]c(=O)c23)cc1: 93
O=C1Cc2c([nH]c3ccc(Br)cc23)-c2ccccc2N1: 95

In: For the compound "O=C1Nc2ccc(I)cc2/C1=C/c1cc(Br)c(O)c(Br)c1" , give its measured remaining activity at 1 µM value.
Out: 77

* * *

Target: MAPKAP-K2 (Homo sapiens, UniProt P49137)
Construct: lines 1-140) and Reaction Biology
Sequence (P49137 whole entry): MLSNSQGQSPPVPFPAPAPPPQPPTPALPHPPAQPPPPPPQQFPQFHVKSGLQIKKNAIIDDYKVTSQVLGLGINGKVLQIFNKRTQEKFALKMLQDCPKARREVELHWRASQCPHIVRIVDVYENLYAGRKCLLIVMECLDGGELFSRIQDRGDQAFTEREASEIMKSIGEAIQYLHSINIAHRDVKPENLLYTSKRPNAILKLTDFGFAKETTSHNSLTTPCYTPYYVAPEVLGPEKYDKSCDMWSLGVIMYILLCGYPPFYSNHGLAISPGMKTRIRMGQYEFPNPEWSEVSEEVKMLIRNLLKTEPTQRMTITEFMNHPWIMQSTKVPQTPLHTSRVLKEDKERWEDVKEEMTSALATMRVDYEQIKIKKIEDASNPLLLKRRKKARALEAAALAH
Assay: Dundee kinase panel
Type: biochemical
Details: read-out: residual activity
MEASUREMENT_LABEL: remaining activity at 1 µM (%)
Respond with the bare value in %.

Reference set, count: 2
COCCOc1ccc(-c2cn(-c3ccccc3)c3nc[nH]c(=O)c23)cc1: 105
O=C1Cc2c([nH]c3ccc(Br)cc23)-c2ccccc2N1: 89

// below: remaining activity at 1 µM requested for another molecule
In: For the molecule "Oc1ncnc2c1c(-c1ccccc1)cn2-c1ccccc1" , give its measured remaining activity at 1 µM value.
Out: 101
